Reported IC50 values for a set of compounds
Tested on: endometrial adenocarcinoma Ishikawa cells
Assay: Cell viability MTT assay, Ishikawa
Assay type: cell-based, human
Details: 48 h, read-out: IC50 values ± SD in MTT assay
measure: IC50

[[record]]
compound = "N.N.[Cl][Pt][Cl] [cisplatin, reference compound]"
study_system = "endometrial adenocarcinoma Ishikawa cells"
measure = "IC50"
result = "12 µM"

[[record]]
compound = "COc1ccc(-c2cc(=O)c3c(O)cc(OC)cc3o2)cc1"
study_system = "endometrial adenocarcinoma Ishikawa cells"
measure = "IC50"
result = "20.9 µM"

[[record]]
compound = "COc1ccc(C2CC(=O)c3c(O)cc(OC)cc3O2)cc1 (stereo not drawn)"
study_system = "endometrial adenocarcinoma Ishikawa cells"
measure = "IC50"
result = "> 50 µM"


Source listed as paper PMC10512030.
